# assayTarget: P-glycoprotein (P-gp) (Homo sapiens (Human), UniProt P08183)
# Sequence (P08183 whole entry): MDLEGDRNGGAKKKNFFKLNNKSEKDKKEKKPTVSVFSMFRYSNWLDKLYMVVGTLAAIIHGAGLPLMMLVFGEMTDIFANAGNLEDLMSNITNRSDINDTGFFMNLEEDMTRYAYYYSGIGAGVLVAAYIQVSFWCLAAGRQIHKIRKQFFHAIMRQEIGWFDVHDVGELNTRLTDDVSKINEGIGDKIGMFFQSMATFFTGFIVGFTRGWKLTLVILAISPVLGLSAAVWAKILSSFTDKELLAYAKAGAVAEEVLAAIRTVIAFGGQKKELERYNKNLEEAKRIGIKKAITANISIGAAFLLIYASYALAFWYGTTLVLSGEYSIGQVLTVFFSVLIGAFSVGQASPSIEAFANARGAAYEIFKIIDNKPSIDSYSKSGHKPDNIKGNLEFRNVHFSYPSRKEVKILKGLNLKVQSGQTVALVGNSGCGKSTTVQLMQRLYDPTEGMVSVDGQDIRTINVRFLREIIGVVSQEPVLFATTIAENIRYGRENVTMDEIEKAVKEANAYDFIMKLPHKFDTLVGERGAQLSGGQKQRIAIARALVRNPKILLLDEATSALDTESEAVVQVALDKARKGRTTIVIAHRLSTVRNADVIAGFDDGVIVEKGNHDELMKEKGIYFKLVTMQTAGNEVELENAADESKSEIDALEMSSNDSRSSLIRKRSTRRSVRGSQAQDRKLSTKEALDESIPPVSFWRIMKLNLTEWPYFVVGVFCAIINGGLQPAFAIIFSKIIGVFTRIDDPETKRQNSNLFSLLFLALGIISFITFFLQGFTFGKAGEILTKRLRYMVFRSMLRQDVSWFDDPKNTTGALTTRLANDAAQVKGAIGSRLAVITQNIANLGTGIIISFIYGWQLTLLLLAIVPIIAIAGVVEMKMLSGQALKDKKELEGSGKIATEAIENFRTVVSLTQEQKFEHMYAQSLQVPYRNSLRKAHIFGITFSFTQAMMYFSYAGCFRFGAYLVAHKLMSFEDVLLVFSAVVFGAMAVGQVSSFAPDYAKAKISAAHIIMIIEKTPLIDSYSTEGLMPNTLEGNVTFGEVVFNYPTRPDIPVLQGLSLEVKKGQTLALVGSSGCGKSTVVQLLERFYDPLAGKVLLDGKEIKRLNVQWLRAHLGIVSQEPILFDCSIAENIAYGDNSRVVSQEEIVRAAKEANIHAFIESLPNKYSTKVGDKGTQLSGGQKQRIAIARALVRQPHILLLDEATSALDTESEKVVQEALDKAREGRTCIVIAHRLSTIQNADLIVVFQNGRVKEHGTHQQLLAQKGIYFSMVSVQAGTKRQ
# experimentDescription: P-gp transport, experimental BA/AB ratio, human
# Assay type: in vitro ADME
# condition: LLC-PK1, 1 μM substrate concentration
List of efflux ratio at 1 μM values.
endpointName: efflux ratio at 1 μM

compound: CC(C)[C@@H](NC(=O)c1cc(=O)[nH]c(N2CC[C@@H](F)C2)n1)c1ccc(OC(F)(F)F)c(F)c1
result: 0.7
//
compound: CN(C)c1nc(C(=O)N[C@@H](c2ccc(SC(F)(F)F)cc2)C2CC2)cc(=O)[nH]1
result: 0.3
//
compound: C[C@@H](NC(=O)c1cc(=O)[nH]c(N2CCCCC2)n1)c1ccc(C(F)(F)F)cc1
result: 0.3
//
compound: O=C(N[C@@H](c1ccc(C2CC2)cc1)C1CC1)c1cc(=O)[nH]c(N2CCCC2)n1
result: 0.4
//
compound: CC(C)[C@@H](NC(=O)c1cc(=O)[nH]c(N2CC[C@H](F)C2)n1)c1ccc(SC(F)(F)F)c(F)c1
result: 3.6
//
compound: CC(C)[C@@H](NC(=O)c1cc(=O)[nH]c(N(C)C)n1)c1ccc(OC(F)F)c(F)c1
result: 1.5
//
compound: CC(C)[C@@H](NC(=O)c1cc(=O)[nH]c(N2CC(F)C2)n1)c1ccc(OC(F)(F)F)c(F)c1
result: 2.6
//
compound: COCC1CCN(c2nc(C(=O)N[C@@H](c3ccc(C(F)(F)F)cc3)C(C)(C)C)cc(=O)[nH]2)C1 (single isomer, unassigned)
result: 5.4
//
compound: CN(C)c1nc(C(=O)N[C@@H](c2ccc(S(F)(F)(F)(F)F)cc2)C2(C)CC2)cc(=O)[nH]1
result: 1.7
//
compound: COc1ccc(OCCCOc2nc(C(=O)NC(C)c3ccc(C(F)(F)F)cc3)cc(=O)[nH]2)cc1 (stereo not drawn)
result: 1
//
compound: CN(C)c1nc(C(=O)N[C@@H](c2ccc(C(F)F)cc2F)C(C)(C)C)cc(=O)[nH]1
result: 1.2
//
compound: C[C@@H](NC(=O)c1cc(=O)[nH]c(N(C)C)n1)c1ccc(OC(F)(F)F)c(F)c1
result: 0.5
//
compound: CC(C)[C@@H](NC(=O)c1cc(=O)[nH]c(N(C)C)n1)c1ccc(C(F)(F)F)cc1
result: 0.6
//
compound: CN(C)c1nc(C(=O)NC(C)(C)c2ccc(C(F)(F)F)c(F)c2)cc(=O)[nH]1
result: 0.3
//
compound: CC(C)[C@@H](NC(=O)c1cc(=O)[nH]c(N(C)C)n1)c1ccc(OC(F)(F)F)cc1
result: 0.6
//
compound: O=C(N[C@@H](c1ccc(OC(F)(F)F)cc1)C1CC1)c1cc(=O)[nH]c(N2CCCC2)n1
result: 0.5
//
compound: CN(C)c1nc(C(=O)N[C@@H](c2ccc(OC(F)(F)F)c(F)c2)C(C)(C)C)cc(=O)[nH]1
result: 1.7
//
compound: CCCOc1nc(C(=O)N[C@H](C)c2ccc(C(F)(F)F)cc2)cc(=O)[nH]1
result: 0.4
//
compound: CN(C)c1nc(C(=O)N[C@@H](c2ccc(OC(F)(F)F)cc2)C2CC2)cc(=O)[nH]1
result: 0.4
//
compound: CN(C)c1nc(C(=O)N[C@@H](c2ccc(CC(F)(F)F)cc2)C(C)(C)C)cc(=O)[nH]1
result: 1.5
//
compound: CN(C)c1nc(C(=O)N[C@@H](c2ccc(C(F)F)c(F)c2)C2CC2)cc(=O)[nH]1
result: 0.8
//
compound: O=C(N[C@@H](c1ccc(C(F)(F)F)cc1)C1CC1)c1cc(=O)[nH]c(N2CCCC2)n1
result: 0.9
//
compound: O=C(N[C@@H](c1ccc(SC(F)(F)F)cc1)C1CC1)c1cc(=O)[nH]c(N2CCCC2)n1
result: 0.8
//
compound: C[C@@H](NC(=O)c1cc(=O)[nH]c(N2CC(F)C2)n1)c1ccc(C(F)(F)F)cc1
result: 1.4
//
compound: C[C@@H](NC(=O)c1cc(=O)[nH]c(N2Cc3ccncc3C2)n1)c1ccc(C(F)(F)F)cc1
result: 17.1
//
compound: CC(C)[C@@H](NC(=O)c1cc(=O)[nH]c(N2CC[C@H](F)C2)n1)c1ccc(OC(F)(F)F)c(F)c1
result: 2.5
//
compound: CN(C)c1nc(C(=O)N[C@@H](c2ccc(C3CC3)cc2)C2CC2)cc(=O)[nH]1
result: 0.3
//
compound: CC[C@@H](NC(=O)c1cc(=O)[nH]c(N(C)C)n1)c1ccc(C(F)(F)F)c(F)c1
result: 0.5
//
compound: C[C@@H](NC(=O)c1cc(=O)[nH]c(N(C)C)n1)c1ccc(C(F)(F)F)cc1
result: 0.5
//
compound: COc1cc(C(F)(F)F)ccc1C(C)(C)NC(=O)c1cc(=O)[nH]c(N(C)C)n1
result: 0.9
